Test: Human HepG2 cell viability assay in 384 well format
Format: toxicity, cell-based
Set-up: dose 125 nL, time 70.5 hour; concentration not given beside the values
Settings: HepG2 cells, read-out: Inhibition
Below, each entry is listed alongside its reported cytotoxicity at 70.5 h.
PROPERTY_LABEL: cytotoxicity at 70.5 h (%)

> print(dat)
                                    compound  assay.value
 1  NC(=O)CN1CCC(NC2CCCCc3ccccc32)CC1 (stereo not drawn)         5.24
 2            CC(C)c1cc(=O)[nH]c(C(C)(C)N)n1        -3.05
 3                 Cn1ccc(CN2CCCC23CCNCC3)n1        -5.64
 4              COCCn1ccc(NC(=O)Nc2ccccn2)n1          -10
 5  Cc1cc(C)c(S(N)(=O)=O)cc1C(=O)NCCN1CCC(C)CC1        -12.9
 6   O=C(CC1CCCCC1)N1CCN(C(=O)NCc2ccccn2)CC1        -9.56
 7  CC1CN(C(=O)NCc2cnn(-c3ccc(F)cc3F)c2)CCO1 (stereo not drawn)        -11.2
 8     COc1ccccc1-c1cc(C(=O)N(C)C)nc2c1cnn2C        -11.4
 9   CCOc1cc(CNC(=O)c2cnn(CC)c2C(F)(F)F)ccn1        -12.6
10  Cc1cc(C)cc(NS(=O)(=O)c2cc3c(c(C(=O)O)c2)OCCO3)c1        -5.38
11  O=C(CC1CC1)N[C@@H]1CN(c2ncccn2)C[C@@H]2CCCO[C@@H]21        -7.21
12               COCCN(CCOC)C(=O)c1sc(C)nc1C        -6.51
13    COCCN1C[C@@H]2CN(c3ncccn3)C[C@@H]2C1=O        -7.68
14  Cn1ccc(-c2cc(C(=O)N3CCC(O)CC3)c3ccccn23)n1         29.8
15  O=C(C1CCC1)N1C(CN2CCOCC2)[C@]2(O)CC[C@H]1CC2 (stereo partly drawn)         13.5
16  O=C([C@@H]1CC[C@@H]2[C@@H](CCN2c2ncccn2)O1)N1CCCO1         11.8
17  CC(C)(C)c1cc(NC(=O)NCCc2nnc3n2CCC3)c(C#N)s1         8.88
18  Cc1ncc2c(n1)CCN(C(C(N)=O)c1ccccc1)C2 (stereo not drawn)        -2.66
19  Cc1ccc(CN2C[C@H](OCCN(C)C)[C@H]3COC[C@H]32)o1       -0.961
20           CN(C(=O)c1ccco1)c1nc2c(s1)CCCC2        -3.33
21  Cc1nnc(N2CCCC3(CN(Cc4nccn4C)CCO3)C2)o1 (stereo not drawn)        -0.85
22  CN(C1CCCN(c2ccccn2)C1)S(C)(=O)=O (stereo not drawn)        -3.73
23  Cc1nc(C)n(CC2CCCN(CC3CCCCC3)C2)n1 (stereo not drawn)        -1.64
24  CCCc1nc(NCC(=O)N2CCOCC2)c2c(n1)c(C)nn2CC         44.1
25  CC(C)CC(C)NCc1cccnc1N1CCOCC1 (stereo not drawn)         19.8
26  CC(SCc1cc(Br)cc2cccnc12)C(N)=O (stereo not drawn)          -16
27                COC(=O)c1occc1Cn1cc(Br)cn1        -2.08
28      Fc1ccccc1Oc1nccnc1C1CCN(C2CCOCC2)CC1         30.2
29  CCc1cc(CNC(=O)C2CCC(=O)N(Cc3ccccc3F)C2)on1 (stereo not drawn)        -9.72
30   COCCN(CCOC)C(=O)c1cn(C(C)(C)C)c2ncccc12          3.1
31       CCN1CCN(C(=O)NCc2ccccc2Cn2cncn2)CC1         19.4
32  CNC(=O)CN1CCO[C@H]2CN(CC3CCOCC3)C[C@H]21        -2.33
33  COc1cccc(OCC2CCCN(Cc3ncc[nH]3)C2)c1 (stereo not drawn)         33.4
34  CN1CCN(Cc2nnc(C3CCN(C4CCCCC4)CC3)n2C)CC1        -27.4
35  COc1cc(F)cc2sc(NC(=O)COCC3CCCO3)nc12 (stereo not drawn)         13.2
36  CS(=O)(=O)N[C@@H]1CCN(Cc2cccnc2)[C@H]1Cc1ccccc1        -11.7
37  Fc1cnc(N2CCCC3(CCN(c4ncccn4)C3)C2)nc1 (stereo not drawn)         13.7
38  O=c1ccc2c(n1CC1CC1)CCC(NCc1cccs1)C2 (stereo not drawn)        -10.4
39              Cn1ccnc1CN1CCC(Cc2ccccn2)CC1         17.2
40  COc1ccc(CN2CCC=C(C(C)NC(C)=O)C2)cc1 (stereo not drawn)        -10.1
41  O=C(Nc1cccc(F)c1)C1CCCN1c1nccs1 (stereo not drawn)         1.52
42         COCC(=O)Nc1ccc(Oc2ccsc2C(=O)O)cc1        -6.01
43  c1ccc(OC2CCCC2)c(CNC2CCc3ncnn3C2)c1 (stereo not drawn)         1.21
44  CN(C)CCOCC1CN(Cc2ccncc2)Cc2nnn(C)c21 (stereo not drawn)          1.9
45  CC(NC(=O)CCCN(C)C)c1cn(-c2ccccc2)nn1 (stereo not drawn)         20.9
46  O=C1CC(c2ccc(C(=O)O)cc2)c2ncn(-c3ccccc3)c2N1 (stereo not drawn)        -6.45
47  CCC(C(=O)NC)N(c1cccc(C)c1)S(C)(=O)=O (stereo not drawn)         11.9
48       COc1ccc(CNC(=O)c2ccc(=O)n(C)c2)cc1C        -9.61
